Cited source: patent US20220125947A1

Listing of entries alongside the reported Max. Activity (fold over background).
Target: Vg5/Vd2 T cell receptor expressed on SKW3 cells (UniProt A0JD36)
Sequence (A0JD36 20-115): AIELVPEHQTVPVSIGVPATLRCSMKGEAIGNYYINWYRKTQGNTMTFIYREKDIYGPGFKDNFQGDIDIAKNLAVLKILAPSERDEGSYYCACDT
Experiment: flow cytometry, dose-response binding at 37 C, SKW3 cells expressing Vg5/Vd2
Just the number, please, no unit attached.

# count of solved cases: 5
binder="VG9B103 (antibody, human IgG1, kappa, V domains shown) VH: EVQLVQSGAEVKKPGSSVKVSCKTSGGTFSSYAISWVRQAPGQGLEWMGGIIPIFGTATYAQKFQDRVTITADKSTSTAYMELSSLRSEDTAVFYCARGVGWGTDYYYGLDVWGQGTTVTVSS VL: ETTLTQSPLSSPVTLGQPASISCRSSQGLVHSDGNTYLSWLQQRPGQSPRLLIYKISNRFSGVPDRFSGSGAGTDFTLKISRVEAEDVGVYYCMQATHHPLTFGGGTKVEIKR" valuereported=237
binder="VG9B147 (antibody, human IgG1, lambda, V domains shown) VH: QVQLQESGPGLVNPSETLSLTCTVSGGSISGYFWNWIRQPPGKGLEWIGYIFYSGSTNYNPSLKSRVTISVDTSKNQFSLKLSSVTAADTAIYYCAREGKWELRSTFDIWGQGTMVTVSS VL: SSELTQDPAVSVALGQTVRITCQGDSLRSYYATWYQQKPGQAPILVIYGENNRPSGIPDRFSGSRSGNTASLTITGAQAEDEADYYCNSRDTGDHHLVFGGGTKLTVLG" valuereported=69.8
binder="VG9B177 (antibody, human IgG1, lambda, V domains shown) VH: QVQLQESGPGLVKPSETLSLTCTVSGGSINNYFWSWIRQPPGKGLEWIGYIFYSGSTNYNPSLKSRVTISIDTSKNQFSLKVNSVTAADTAVYYCARVGKWELRTAFDIWGQGTMVTVSS VL: QSALTQPASVSGSPGQSITISCTGTSSDVADYNYVSWYQQHPGKAPKLMIYEVSNRPSGVSNRFSGSKSGNTASLTISGLQAEDEADYYCCSYTSSFTVVFGGGTKVTVLG" valuereported=193
binder="VG9B203 (antibody, human IgG1, lambda, V domains shown) VH: QVQLVQSGPGLVKPSETLSLTCTVSGDSIGHYYWNWIRQPAGKGLEWIGRIYTSGSTNYNPSLKSRVTMSVDTSKNQFSLKLSSVTAADTAVYYCARSGGNFYWYFDLWGRGTLVTVSS VL: QSVLTQPPSVSAAPGQKVTISCSGSSSNIGNNYVSWYQQVPGTAPKLLIYDNNKRPSGIPDRISGSKSGTSATLGITGLQTGDEADYYCGTWDSSLSAGVFGGGTKVTVLG" valuereported=194
binder="VG9B81 (antibody, human IgG1, kappa, V domains shown) VH: QVQLQESGPGLVKPSETLSLTCSVSGGSINTYYWSWFRQPAGKGLELIGRIYTSDNTNYNPSLKSRVTMSVDTSKNQFSLKLSSVTAADTAVYYCARYNWNYWYFDLWGRGTLVTVSS VL: DIQMTQSPSFLSASVRDRVNITCRASQGISSYLAWYQQKPGKAPKLLIYTASTLQSGVPSRFSGSGSGTEFTLTISSLQPEDFATYYCQHLNSYPYTFGQGTKVEIKR" valuereported=77

// switching to the query binder
Provide only the value of recorded Max. Activity (fold over background) for VG9B87 (antibody, human IgG1, kappa, V domains shown) VH: QVQLVESGAEVKKPGASVKVSCKASGYTFTSEYIHWVRQAPGQGLEWMGIINPSGGSTSYAQRFQGRVTMTRDTSTSTVYMEVNSLRSEDTAVYYCARERGYSYGSFDYWGQGTLVTVSS VL: EIVLTQSPSFLSASAGDRVTITCRASQGISSYLAWYQQKPEKAPKLLIYAASTLQSGVPSRFSGSGSGTEFTLTISSLQPEDFATYYCQQFNSYSLTFGGGTKLEIKR
51.6
